src = the supplement of paper PMC10883282

Assignment: determine reported relative viability for the given molecules.
test system: SK-LMS-1; experiment: relative viability vs DMSO control (72 h) (fraction); higher = more viable cells; settings: 0.00017 µM

Entry CCCCCCCCCCCCCCCCCCOP(=O)([O-])OC1CC[N+](C)(C)CC1 : reported relative viability = ?
1.01

Please do the same for C[C@@H](Oc1cc(-c2cnn(C3CCNCC3)c2)cnc1N)c1c(Cl)ccc(F)c1Cl as well.
1.03

Please do the same for C[C@H]1Oc2cc(cnc2N)-c2c(nn(C)c2C#N)CN(C)C(=O)c2ccc(F)cc21 as well.
1.12

* * *

Assignment: determine reported relative viability for the given molecules.
system: SK-LMS-1; assay: relative viability vs DMSO control (72 h) (fraction); higher = more viable cells; conditions: 0.01372 µM
Give your answer as a number; write no unit.

Entry Cc1ccc(C(=O)OCc2ccc([C@@H](CN)C(=O)Nc3ccc4cnccc4c3)cc2)c(C)c1 : reported relative viability = ?
1.04

Please do the same for Cc1ccc(NC(=O)c2ccc(CN3CCN(C)CC3)cc2)cc1Nc1nccc(-c2cccnc2)n1 as well.
1.06

Please do the same for FC(F)(F)c1ccc(CNc2ccc(Cc3c[nH]c4ncc(Cl)cc34)cn2)cn1 as well.
1.03

Please do the same for C#Cc1cccc(Nc2ncnc3cc(OCCOC)c(OCCOC)cc23)c1 as well.
1.09

Please do the same for COc1cc2nccc(Oc3ccc(NC(=O)C4(C(=O)Nc5ccc(F)cc5)CC4)cc3)c2cc1OC [Cabozantinib] as well.
1.09

Please do the same for Cc1cccc(-c2[nH]c(CNc3ccccc3F)nc2-c2ccc3ncnn3c2)n1 as well.
0.984

Please do the same for N#Cc1ccnc(N2C(=O)CC[C@H]2C(=O)N(c2cncc(F)c2)[C@H](C(=O)NC2CC(F)(F)C2)c2ccccc2Cl)c1 as well.
1.04

Please do the same for CCN(c1cc(-c2ccc(CN3CCOCC3)cc2)cc(C(=O)NCc2c(C)cc(C)[nH]c2=O)c1C)C1CCOCC1 as well.
0.997

Please do the same for COc1cc2ncnc(Nc3cccc(Cl)c3F)c2cc1OC(=O)N1CCN(C)C[C@H]1C as well.
1.09

Please do the same for CN1CCN(CCOc2cc(OC3CCOCC3)c3c(Nc4c(Cl)ccc5c4OCO5)ncnc3c2)CC1 as well.
1.02

Please do the same for CO[C@@H]1[C@H](N(C)C(=O)c2ccccc2)C[C@H]2O[C@]1(C)n1c3ccccc3c3c4c(c5c6ccccc6n2c5c31)C(=O)NC4 as well.
1.02

Please do the same for NC(=O)c1cnc2[nH]ccc2c1N[C@@H]1[C@@H]2CC3C[C@H]1C[C@@](O)(C3)C2 as well.
1.1

Please do the same for C[C@@H](Oc1cc(-c2cnn(C3CCNCC3)c2)cnc1N)c1c(Cl)ccc(F)c1Cl as well.
0.996

Please do the same for C[C@H]1Oc2cc(cnc2N)-c2c(nn(C)c2C#N)CN(C)C(=O)c2ccc(F)cc21 as well.
1.1

Please do the same for C1=N/C2=N/c3ccc(OCCN4CCCC4)c(c3)COC/C=C/COCc3cccc(c3)C(=C1)N2 as well.
1.08

* * *

test system: VA-ES-BJ; assay: relative viability vs DMSO control (72 h) (fraction); higher = more viable cells; conditions: 0.01372 µM
test.readout: relative viability
Give your answer as a number; write no unit.

Entry C1=N/C2=N/c3ccc(OCCN4CCCC4)c(c3)COC/C=C/COCc3cccc(c3)C(=C1)N2 [Pacritinib] : reported relative viability = ?
1.06

Please do the same for COc1cc2c(Oc3ccc4[nH]c(C)cc4c3F)ccnc2cc1OCC1(N)CC1 [Anlotinib] as well.
0.977

Please do the same for COc1cc2nccc(Oc3ccc(NC(=O)NC4CC4)c(Cl)c3)c2cc1C(N)=O [Lenvatinib] as well.
1.12

Please do the same for COc1cc2nccc(Oc3ccc(NC(=O)C4(C(=O)Nc5ccc(F)cc5)CC4)cc3)c2cc1OC [Cabozantinib] as well.
1.04

Please do the same for CO[C@H]1C[C@@H]2CC[C@@H](C)[C@@](O)(O2)C(=O)C(=O)N2CCCC[C@H]2C(=O)O[C@H]([C@H](C)C[C@@H]2CC[C@@H](O)[C@H](OC)C2)CC(=O)[C@H](C)/C=C(\C)[C@@H](O)[C@@H](OC)C(=O)[C@H](C)C[C@H](C)/C=C/C=C/C=C/1C [Rapamycin] as well.
0.476

Please do the same for CN(C)C[C@@H]1CCn2cc(c3ccccc32)C2=C(C(=O)NC2=O)c2cn(c3ccccc23)CCO1 [Ruboxistaurin] as well.
0.982

Please do the same for CN1CCN(CCOc2cc(OC3CCOCC3)c3c(Nc4c(Cl)ccc5c4OCO5)ncnc3c2)CC1 [Saracatinib] as well.
1.11

Please do the same for COc1cc2ncnc(Nc3cccc(Cl)c3F)c2cc1OC(=O)N1CCN(C)C[C@H]1C [AZD-3759] as well.
1.02

Please do the same for C[C@H]1Oc2cc(cnc2N)-c2c(nn(C)c2C#N)CN(C)C(=O)c2ccc(F)cc21 [Lorlatinib] as well.
1.02

Please do the same for CCCCCCCCCCCCCCCCCCOP(=O)([O-])OC1CC[N+](C)(C)CC1 [Perifosine] as well.
1.07

Please do the same for C[C@@H]1COC(Nc2ccc3ncnc(Nc4ccc(OCc5nccs5)c(Cl)c4)c3c2)=N1 [Varlitinib] as well.
1.08

Please do the same for NC(=O)c1cccc2cn(-c3ccc([C@@H]4CCCNC4)cc3)nc12 [Niraparib] as well.
0.99
